Reported values of IC50 for individual entries
# MEASUREMENT_NOTES: In vitro cytotoxicity in Human breast tumor cells
# Type: functional, cell-based
Write the number in µg/mL without appending the unit.

Query string: Could you share which IC50 value was measured for `CC(=O)Oc1cccc2c(/N=N/c3ccc([N+](=O)[O-])cc3[N+](=O)[O-])c3cccc(OC(C)=O)c3c(O)c12` ?
Result string: 0.04

Query string: Could you share which IC50 value was measured for `O=[N+]([O-])c1ccc(NN=c2c3ccccc3oc3ccccc23)c([N+](=O)[O-])c1` ?
Result string: 0.04

Query string: Could you share which IC50 value was measured for `CN(C)c1ccc(C(=NNc2ccc([N+](=O)[O-])cc2[N+](=O)[O-])c2ccc(N(C)C)cc2)cc1` ?
Result string: 4.2

Query string: Could you share which IC50 value was measured for `CC(=O)Oc1cccc2c(/N=N/c3ccc([N+](=O)[O-])cc3[N+](=O)[O-])c3cccc(O)c3c(O)c12` ?
Result string: 0.05

Query string: Could you share which IC50 value was measured for `O=[N+]([O-])c1ccc(NN=C2c3cc(O)ccc3-c3ccc(O)cc32)c([N+](=O)[O-])c1` ?
Result string: 0.05

Query string: Could you share which IC50 value was measured for `O=[N+]([O-])c1ccc(/N=N/c2c3cccc(O)c3c(O)c3c(O)cccc23)c([N+](=O)[O-])c1` ?
Result string: 0.03
